- TARGET DESC: NMDA-receptor subtype 2B (Rattus norvegicus, UniProt P35439+Q00960)
- Construct: Membranes were prepared by homogenization of the whole brain minus cerebellum and medulla oblongata
- Sequence (Q00960 27-1482, other chains not shown): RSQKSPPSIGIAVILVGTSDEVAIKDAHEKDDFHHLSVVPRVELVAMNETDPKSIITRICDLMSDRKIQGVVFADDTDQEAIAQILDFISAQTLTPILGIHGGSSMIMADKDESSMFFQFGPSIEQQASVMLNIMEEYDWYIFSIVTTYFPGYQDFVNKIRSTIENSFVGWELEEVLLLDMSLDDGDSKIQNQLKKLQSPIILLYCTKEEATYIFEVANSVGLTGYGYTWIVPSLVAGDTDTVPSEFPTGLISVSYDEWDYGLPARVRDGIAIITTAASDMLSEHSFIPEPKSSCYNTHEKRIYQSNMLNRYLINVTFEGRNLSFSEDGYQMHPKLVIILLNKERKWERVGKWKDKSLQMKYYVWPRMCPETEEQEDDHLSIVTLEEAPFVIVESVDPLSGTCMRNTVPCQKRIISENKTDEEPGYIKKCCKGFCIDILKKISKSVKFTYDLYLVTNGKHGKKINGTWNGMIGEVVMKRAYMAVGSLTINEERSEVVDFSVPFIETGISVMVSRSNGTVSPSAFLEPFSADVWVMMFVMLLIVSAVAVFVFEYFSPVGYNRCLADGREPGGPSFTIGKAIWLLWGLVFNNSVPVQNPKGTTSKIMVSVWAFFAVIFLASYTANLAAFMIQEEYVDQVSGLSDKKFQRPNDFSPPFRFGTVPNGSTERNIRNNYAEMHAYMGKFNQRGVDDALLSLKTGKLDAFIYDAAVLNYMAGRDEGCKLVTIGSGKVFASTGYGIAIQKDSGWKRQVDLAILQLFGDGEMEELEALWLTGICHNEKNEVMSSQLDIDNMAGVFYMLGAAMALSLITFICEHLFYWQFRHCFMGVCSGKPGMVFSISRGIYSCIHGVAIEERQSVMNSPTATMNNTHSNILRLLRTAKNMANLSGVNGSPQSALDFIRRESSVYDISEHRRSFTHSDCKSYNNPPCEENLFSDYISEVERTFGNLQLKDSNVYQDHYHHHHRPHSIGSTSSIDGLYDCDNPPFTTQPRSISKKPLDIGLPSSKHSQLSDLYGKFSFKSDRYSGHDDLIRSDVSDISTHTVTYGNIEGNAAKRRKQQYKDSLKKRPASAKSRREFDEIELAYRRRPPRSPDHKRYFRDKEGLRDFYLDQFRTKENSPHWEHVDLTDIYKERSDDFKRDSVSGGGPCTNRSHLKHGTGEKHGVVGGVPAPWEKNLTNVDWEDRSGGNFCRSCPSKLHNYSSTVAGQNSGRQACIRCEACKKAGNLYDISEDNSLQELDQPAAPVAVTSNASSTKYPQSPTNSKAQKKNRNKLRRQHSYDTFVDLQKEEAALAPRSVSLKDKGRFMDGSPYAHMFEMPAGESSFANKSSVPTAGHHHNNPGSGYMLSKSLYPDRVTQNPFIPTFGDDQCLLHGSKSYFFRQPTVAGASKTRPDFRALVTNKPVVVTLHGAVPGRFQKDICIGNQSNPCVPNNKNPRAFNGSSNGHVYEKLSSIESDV
- TEST DESCRIPTION: 3H-Ro 25-6981 binding (displacement)
- TEST SETTINGS: displacement of 5 nM 3H-Ro 25-6981 from rat brain membranes (whole brain minus cerebellum and medulla oblongata), 2 hours at 4° C., Tris-HCl 50 mM pH 7.4
MEASURE NAME: IC50 (nM)

{"COMPOUND": "Cc1cc(N)cc(C2=Cc3cc(Cl)ccc3CC2)n1.O=C(O)/C=C/C(=O)O [Example 37, fumarate]", "MEASURE NAME": "IC50", "UNITS": "nM", "TEST RESULT": 82}

P: Cc1cnc(C2=Cc3ccccc3CC2)cc1N.O=C(O)/C=C/C(=O)O [Example 24, fumarate]
Q: Cc1cc(C)c2c(c1)C=C(c1cc(N)ccn1)CC2.O=C(O)/C=C/C(=O)O [Example 34, fumarate]
R: Cc1cc(/C=C/c2ccccc2)cc(N)n1 [Example 13]
# desc sort on IC50 across 3 compounds Please write the labels in the order that was asked for. Q, R, P
(Q: 57 nM, R: 30 nM, P: 11 nM)

A: CNc1ccnc(C2=Cc3ccccc3CC2)c1.O=C(O)/C=C/C(=O)O [Example 27, fumarate]
B: Cc1cc(N)cc(C2=Cc3ccccc3CC2)n1.O=C(O)/C=C/C(=O)O [Example 22, fumarate]
Field: entry with larger IC50 (options A / B ). // respond with label for picked entry A

* * *

MEASURE NAME: melting point

Example results:
{"COMPOUND": "Cc1cnc(C2=Cc3ccccc3CC2)cc1N.O=C(O)/C=C/C(=O)O", "melting point": "> 200 °C (dec.)"}
{"COMPOUND": "CNc1ccnc(C2=Cc3ccccc3CC2)c1.O=C(O)/C=C/C(=O)O", "melting point": "106 to 107 °C"}
{"COMPOUND": "Cc1cc(N)cc(C2=Cc3cc(Cl)ccc3CC2)n1.O=C(O)/C=C/C(=O)O", "melting point": "232 to 233 °C"}

melting point lookup needed for "Cl.Nc1cccc(C=Cc2ccc(F)cc2)n1" , thanks. > 250 °C

Continue with "Cc1c(N)ccnc1C1=Cc2ccccc2CC1" 87 to 88 °C

Continue with "Cc1cc(N)nc(C2=Cc3ccccc3CC2)c1.O=C(O)/C=C/C(=O)O" 142 to 143 °C

Continue with "Cc1cnc(C2=Cc3ccsc3CC2)cc1N.O=C(O)/C=C/C(=O)O" 218 to 219 °C

Continue with "Nc1cccc(C2=Cc3ccccc3CC2)n1.O=C(O)/C=C/C(=O)O" 153 to 154 °C

Continue with "Cl.Nc1cccc(C=Cc2cccc(C(F)(F)F)c2)n1" 222 to 223 °C

* * *

MEASURE NAME: melting point

{"MOLECULE": "Cc1cnc(C2=Cc3cc(Cl)ccc3CC2)cc1N.O=C(O)/C=C/C(=O)O", "melting point": "> 250 °C"}

melting point lookup needed for "COc1ccc2c(c1)C=C(c1cc(N)ccn1)CC2.O=C(O)/C=C/C(=O)O" , thanks. 193 to 194 °C

Continue with "Cl.Nc1cccc(C=Cc2ccc(Cl)c(Cl)c2)n1" > 250 °C

Continue with "COc1cccc2c1CCC(c1cc(N)ccn1)=C2.O=C(O)/C=C/C(=O)O" 207 to 208 °C

Continue with CC1CC(c2cc(N)ccn2)=Cc2ccccc21.O=C(O)/C=C/C(=O)O (racemic) 176 to 177 °C

Continue with "Cl.Nc1cccc(C=Cc2cccc(Cl)c2)n1" 248 to 249 °C

Continue with "Cc1ccc(C=Cc2cccc(N)n2)cc1.Cl" > 250 °C

Continue with "Cl.Nc1ccnc(C2=Cc3ccccc3CC2)c1" 231 to 232 °C

Continue with "Cc1cc(/C=C/c2ccccc2)cc(N)n1" 149 to 150 °C

Continue with "CCc1cc(N)cc(C2=Cc3cc(Cl)ccc3CC2)n1.O=C(O)/C=C/C(=O)O" 232 to 233 °C

Continue with "Cc1cc(N)nc(/C=C/c2ccccc2)c1.Cl" > 250 °C

* * *

melting point values for the compounds below.

Example results:
{"COMPOUND": "Nc1cc(CO)nc(C2=Cc3ccccc3CC2)c1.O=C(O)/C=C/C(=O)O", "melting point": "113 °C (dec.)"}
{"COMPOUND": "Cl.Nc1cccc(C=Cc2ccc(Cl)cc2)n1", "melting point": "> 250 °C"}
{"COMPOUND": "Nc1cccc(C=Cc2ccc(O)cc2)n1", "melting point": "224 to 225 °C"}
{"COMPOUND": "Cl.NCc1cccc(/C=C/c2ccccc2)n1", "melting point": "170 °C (dec.)"}
{"COMPOUND": "Cl.NCc1cccc(C2=Cc3ccccc3CC2)n1", "melting point": "203 to 204 °C"}
{"COMPOUND": "Cc1cc(N)cc(C2=Cc3ccccc3CC2)n1.O=C(O)/C=C/C(=O)O", "melting point": "202 to 203 °C"}

melting point lookup needed for Nc1ccc(/C=C/c2ccccc2)nc1 [Example 15, trans-6-Styryl-pyridin-3-yl-amine] , thanks. 159 to 160 °C

Continue with "CCc1cc(N)cc(C2=Cc3ccccc3CC2)n1.O=C(O)/C=C/C(=O)O" > 230 °C (dec.)

Continue with "Cl.Nc1cccc(C=Cc2cccc(F)c2)n1" > 250 °C

Continue with "Cc1cc(C)c2c(c1)C=C(c1cc(N)ccn1)CC2.O=C(O)/C=C/C(=O)O" 231 to 232 °C

The values you see were collected from patent US7034044B2.
